molecular target: human TLR7 (Homo sapiens); experiment: Agonistic activity on human TLR7 in HEK-Blue hTLR7 cell line (QUANTI-Blue reporter); details: HEK-Blue hTLR7 cells, 16-22 h incubation, absorption at 630 nm; read-out: EC50 value of the agonistic effect on human TLR7
endpoint-name: EC50 (nM)

| compound | EC50 (nM) |
| --- | --- |
| Nc1nc2nc3c1[nH]c(=O)n3Cc1cc(c3c(c1)CN(S(=O)(=O)c1ccccc1)CC3)CC=CCCO2 | 579 |
| Nc1nc2nc3c1[nH]c(=O)n3Cc1cc(c3c(c1)CN(C1CCNCC1)CC3)CCCCCO2 | 280 |
| CC(C)N1CCc2cc3cc(c2C1)OCCCCOc1nc(N)c2[nH]c(=O)n(c2n1)C3 | 11 |
| Nc1nc2nc3c1[nH]c(=O)n3Cc1ccc(O)c(c1)C/C=C/CCO2 [Reference 3, reference compound] | 41 |
| Nc1nc2nc3c1[nH]c(=O)n3Cc1cc(c3c(c1)CN(C1CCC1)CC3)CCCCCO2 | 10 |
| Nc1nc2nc3c1[nH]c(=O)n3Cc1cc(c3c(c1)CN(CCO)CC3)CCCCCO2 | 47 |
| Nc1nc2nc3c1[nH]c(=O)n3Cc1cc(c3c(c1)CC(C(=O)O)CO3)CC=CCCO2 (stereo not shown) | 20 |
| Nc1nc2nc3c1[nH]c(=O)n3Cc1cc(c3c(c1)CCNC3)CCCCCO2 | 28 |

(a) CS(=O)(=O)N1CCc2c3cc(cc2C1)Cn1c(=O)[nH]c2c(N)nc(nc21)OCCC=CC3
(b) Nc1nc2nc3c1[nH]c(=O)n3Cc1cc(c3c(c1)CNCC3)CCCCCO2
Look at a and b . Which one has the lower recorded EC50 number? // respond with label for picked entry
a
(a: 3 nM, b: 26 nM)

###

Molecular target: human TLR7 (Homo sapiens, UniProt Q9NYK1)
Sequence (Q9NYK1 27-1049): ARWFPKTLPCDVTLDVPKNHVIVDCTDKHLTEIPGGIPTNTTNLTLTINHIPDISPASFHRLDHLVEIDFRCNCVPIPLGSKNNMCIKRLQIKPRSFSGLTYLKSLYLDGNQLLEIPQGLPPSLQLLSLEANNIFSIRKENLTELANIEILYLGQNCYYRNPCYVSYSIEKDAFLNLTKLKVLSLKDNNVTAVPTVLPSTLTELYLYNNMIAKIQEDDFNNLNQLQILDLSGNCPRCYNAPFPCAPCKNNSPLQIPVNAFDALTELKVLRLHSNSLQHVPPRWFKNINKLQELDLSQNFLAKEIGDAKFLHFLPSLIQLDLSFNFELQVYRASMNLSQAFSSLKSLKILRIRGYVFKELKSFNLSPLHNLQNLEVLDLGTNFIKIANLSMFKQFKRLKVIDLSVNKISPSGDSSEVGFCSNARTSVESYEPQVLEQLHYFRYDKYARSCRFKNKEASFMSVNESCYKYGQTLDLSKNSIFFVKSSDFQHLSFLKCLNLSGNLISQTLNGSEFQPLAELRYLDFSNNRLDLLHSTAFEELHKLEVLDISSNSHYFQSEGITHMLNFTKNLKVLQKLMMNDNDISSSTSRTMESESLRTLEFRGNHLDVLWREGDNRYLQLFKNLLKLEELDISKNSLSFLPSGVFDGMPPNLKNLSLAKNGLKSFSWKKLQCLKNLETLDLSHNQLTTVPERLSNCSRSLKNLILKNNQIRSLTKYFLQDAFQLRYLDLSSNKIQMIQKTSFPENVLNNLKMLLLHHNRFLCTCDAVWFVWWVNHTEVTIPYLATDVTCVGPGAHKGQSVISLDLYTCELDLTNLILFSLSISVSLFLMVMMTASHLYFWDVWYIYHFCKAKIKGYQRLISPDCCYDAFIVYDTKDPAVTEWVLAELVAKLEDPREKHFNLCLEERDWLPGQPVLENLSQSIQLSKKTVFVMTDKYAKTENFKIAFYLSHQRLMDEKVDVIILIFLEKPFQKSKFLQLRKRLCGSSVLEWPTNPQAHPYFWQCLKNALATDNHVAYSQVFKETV
Test: Agonistic activity on human TLR7 in HEK-Blue hTLR7 cell line (QUANTI-Blue reporter)
Conditions: HEK-Blue hTLR7 cells, 16-22 h incubation, absorption at 630 nm; read-out: EC50 value of the agonistic effect on human TLR7
pEC50: −log10 of the molar value.
endpoint-name: pEC50

| molecule | pEC50 |
| --- | --- |
| Nc1nc2nc3c1[nH]c(=O)n3Cc1cc(cc3c1CN(C1CCC1)CC3)OCCCCO2 [Compound I-68] | 7.60 |

(P) CN1Cc2c3cc(cc2C1=O)Cn1c(=O)[nH]c2c(N)nc(nc21)OCCC=CC3 [Compound I-4]
(Q) COC(=O)CN1CCc2c3cc(cc2C1)Cn1c(=O)[nH]c2c(N)nc(nc21)OCCCCC3 [Compound I-49]
Would you mind telling me which has the lower recorded pEC50 between P and Q ? Answer by quoting the chosen item's label.
Q
(Q: 7.14, P: 8.30)

(1) CN1Cc2c3cc(cc2C1=O)Cn1c(=O)[nH]c2c(N)nc(nc21)OCCCCC3 [Compound I-5]
(2) CC(C)N1CCc2cc3cc(c2C1)CCCCCOc1nc(N)c2[nH]c(=O)n(c2n1)C3 [Compound I-50]
Just tell me: smaller pEC50 value, 1 or 2 ? Kindly state the label of the option you pick.
1
(1: 6.95, 2: 8.70)

(P) Nc1nc2nc3c1[nH]c(=O)n3Cc1cc(c3c(c1)CCNC3)C/C=C/CCO2 [Compound I-12]
(Q) Nc1nc2nc3c1[nH]c(=O)n3Cc1cc(c3c(c1)CNCC3)CCCCCS2(=O)=O [Compound I-61]
(R) CC1(C(=O)O)Cc2cc3cc(c2C1)C/C=C\CCOc1nc(N)c2[nH]c(=O)n(c2n1)C3 (stereo not shown) [Compound I-21]
Rank the 3 molecules: largest pEC50 first, smallest last. Write the labels out in the order the request specifies.
P, Q, R

(1) CC(C)(C(=O)O)N1CCc2c3cc(cc2C1)Cn1c(=O)[nH]c2c(N)nc(nc21)OCCCCC3 [Compound I-26]
(2) CN1CCc2c3cc(cc2C1)Cn1c(=O)[nH]c2c(N)nc(nc21)OCCCCC3 [Compound I-36]
Pick one: 1 or 2 . Which one has the lower reported pEC50? Please respond with the label that marks your chosen entry.
1
(1: 6.98, 2: 7.70)

(A) CC(C)(C)N1Cc2c3cc(cc2C1=O)Cn1c(=O)[nH]c2c(N)nc(nc21)SCC/C=C\C3 [Compound I-52]
(B) Nc1nc2nc3c1[nH]c(=O)n3Cc1cc3c(c(c1)OC[C@@H]1CCC[C@H]1CO2)CCNC3 [Compound I-33]
Between item A and item B , which reported pEC50 is smaller? Answer format: the label of the selected item.
B
(B: 6.85, A: 7.72)
